Values from the RNAGym collection of RNA variant scans (doi:10.1073/pnas.2313332121)

B1: TPR 5TU (parent)
chain: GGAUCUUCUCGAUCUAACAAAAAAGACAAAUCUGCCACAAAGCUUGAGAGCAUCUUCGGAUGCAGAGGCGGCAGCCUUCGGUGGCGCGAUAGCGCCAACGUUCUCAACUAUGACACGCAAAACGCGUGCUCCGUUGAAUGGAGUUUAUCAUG

# Variants of: B1
# Assay text: polymerase ribozyme fitness, log enrichment relative to wild type (log ratio); higher = more active; in vitro selection for triplet polymerase activity
Variants at the floor of the assay were thinned out.
Form field: polymerase ribozyme fitness (log ratio) (one value per entry).
Could you respond with only the numeric value?

QUERY: What does the record list as polymerase ribozyme fitness (log ratio) for U4G G58A C85U A115U U144G ?
RESULT: -2.13
